Target: human full length HSD11 β 1 (Homo sapiens)
Construct: transient expression of human full length HSD11 β 1 expression vector; host or cells: CHO cells (transient transfection)
Sequence (P28845 whole entry): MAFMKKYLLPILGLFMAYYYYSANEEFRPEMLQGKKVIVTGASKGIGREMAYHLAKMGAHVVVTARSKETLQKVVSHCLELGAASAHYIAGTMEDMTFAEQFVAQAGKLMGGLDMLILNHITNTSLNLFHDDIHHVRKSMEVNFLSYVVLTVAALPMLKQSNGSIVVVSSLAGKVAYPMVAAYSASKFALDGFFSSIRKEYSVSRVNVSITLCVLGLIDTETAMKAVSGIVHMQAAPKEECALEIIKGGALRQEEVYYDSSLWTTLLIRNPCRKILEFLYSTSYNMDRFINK
Assay: In Vitro HSD11β1 Inhibition Assay
Assay type: cell-based
Details: CHO cells transiently expressing human HSD11β1; 200 nM cortisone+500 uM NADPH overnight; cortisone to cortisol by LC/MS-MS; read-out: 11βHSD1 (IC50)
pIC50: −log10 of the molar value.
VALUE KIND: pIC50

MOLECULE	READOUT VALUE
O=C(CCc1c[nH]c2ccccc12)N1CCCC2=C1CCCC2	< 6.60
CC(CC(=O)N1CCC(C(=O)O)C2CCCCC21)c1nc2ccccc2s1 (stereo not shown)	< 6.60
CC(CC(=O)N1CCCC2C(C(=O)O)CCCC21)c1c[nH]c2cccc(-c3ccco3)c12 (stereo not shown) [Compound 222]	6.82 to 7.00
CC(CC(=O)N1CCCC2(c3ccccc3)CCCCC12)c1c[nH]c2cccc(Cl)c12 (stereo not shown)	< 6.60

* * *

Molecular target: human full length HSD11 β 1 (Homo sapiens)
Construct: transient expression of human full length HSD11 β 1 expression vector; host or cells: CHO cells (transient transfection)
Experiment: In Vitro HSD11β1 Inhibition Assay
Format: cell-based
Conditions: CHO cells transiently expressing human HSD11β1; 200 nM cortisone+500 uM NADPH overnight; cortisone to cortisol by LC/MS-MS; read-out: 11βHSD1 (IC50)
Protocol: In Vitro HSD11β1 Inhibition Assay: CHO cells were maintained in Dulbecco's modified Eagle's medium/nutrient mixture F-12 containing 5% fetal bovine serum (v/v) and 2 mM glutamine. Cells were cultured at 37° C. with 5% CO2. […] The enzymatic activity or inhibition of enzyme activity was measured by estimating the conversion of cortisone to cortisol by LC/MS-MS method. The IC50 in nM was calculated from an 8 point log scale of concentration versus inhibition.

MOLECULE	TGT	IC50
Cc1ccc2[nH]cc(C(C)CC(=O)N3CCCC4C(C(=O)O)CCCC43)c2c1Cl (stereo not drawn) [Compound 203]	human full length HSD11 β 1 (Homo sapiens)	> 250 nM
Cc1cccc2c1c(CCC(=O)N1CCO[C@@H]3CCCC[C@@H]31)cn2C (relative stereo) [Compound 66]	human full length HSD11 β 1 (Homo sapiens)	< 100 nM
Cc1cccc2[nH]cc(CCC(=O)N3C(C)CCC4CCCCC43)c12 (stereo not drawn) [Compound 35]	human full length HSD11 β 1 (Homo sapiens)	< 100 nM
O=C(/C=C/c1c[nH]c2ccccc12)N1CCCC2CCCCC21 (stereo not drawn) [Compound 8]	human full length HSD11 β 1 (Homo sapiens)	100 to 150 nM
Cc1cccc2c1c(CCC(=O)N1CCCC3CCCCC31)cn2C (stereo not drawn) [Compound 27]	human full length HSD11 β 1 (Homo sapiens)	< 100 nM
CC(CC(=O)N1CCCC2(CO)CCCCC12)c1c[nH]c2nccc(Cl)c12 (stereo not drawn) [Example 147]	human full length HSD11 β 1 (Homo sapiens)	> 250 nM
CC(CC(=O)N1CCC(C(=O)O)C2CCCCC21)c1c[nH]c2cccc(-c3ccco3)c12 (stereo not drawn) [Compound 227]	human full length HSD11 β 1 (Homo sapiens)	> 250 nM
CC(CC(=O)N1C(C)CCC2CCCCC21)c1c[nH]c2ccc(F)cc12 (stereo not drawn) [Example 92]	human full length HSD11 β 1 (Homo sapiens)	100 to 150 nM
O=C(O)C1CCN(C(=O)CC(c2ccccc2)c2nc3ccccc3s2)C2CCCCC12 (stereo not drawn) [Example 152]	human full length HSD11 β 1 (Homo sapiens)	> 250 nM
